target: human CD33 Q364A (human, UniProt P20138 18-363); experiment: flow cytometry, alanine scan
Sequence (P20138 18-364 Q364A limits assumed): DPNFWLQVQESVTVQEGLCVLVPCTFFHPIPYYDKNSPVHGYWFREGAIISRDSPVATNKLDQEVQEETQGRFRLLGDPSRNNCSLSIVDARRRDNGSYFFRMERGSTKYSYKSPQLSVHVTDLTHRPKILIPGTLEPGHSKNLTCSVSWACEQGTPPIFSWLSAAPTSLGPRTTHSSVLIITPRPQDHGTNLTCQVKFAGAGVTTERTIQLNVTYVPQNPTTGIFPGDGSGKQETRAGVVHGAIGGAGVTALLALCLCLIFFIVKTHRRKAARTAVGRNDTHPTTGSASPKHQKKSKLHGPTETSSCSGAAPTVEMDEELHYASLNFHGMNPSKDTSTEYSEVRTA
recorded.endpoint: Mean % WT Binding

>>> test_result("Refmab #1 (antibody, V domains shown, The alanine scan used IgG or Fab; also called hP67.6) VH: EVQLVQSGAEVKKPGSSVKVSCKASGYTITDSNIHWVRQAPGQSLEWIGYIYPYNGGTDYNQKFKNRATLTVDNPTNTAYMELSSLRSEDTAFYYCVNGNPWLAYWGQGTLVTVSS VL: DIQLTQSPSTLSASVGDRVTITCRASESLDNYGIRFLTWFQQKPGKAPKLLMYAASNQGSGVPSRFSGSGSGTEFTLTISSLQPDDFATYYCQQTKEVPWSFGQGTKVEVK")
"72 % of WT"
